target: human TLR7 (Homo sapiens (Human), UniProt Q9NYK1); test: TLR7 inhibition reporter assay (HEK-Blue SEAP); assay type: cell-based; details: HEK-Blue human TLR7 cells, gardiquimod 7.5 μM
Sequence (Q9NYK1 27-1049): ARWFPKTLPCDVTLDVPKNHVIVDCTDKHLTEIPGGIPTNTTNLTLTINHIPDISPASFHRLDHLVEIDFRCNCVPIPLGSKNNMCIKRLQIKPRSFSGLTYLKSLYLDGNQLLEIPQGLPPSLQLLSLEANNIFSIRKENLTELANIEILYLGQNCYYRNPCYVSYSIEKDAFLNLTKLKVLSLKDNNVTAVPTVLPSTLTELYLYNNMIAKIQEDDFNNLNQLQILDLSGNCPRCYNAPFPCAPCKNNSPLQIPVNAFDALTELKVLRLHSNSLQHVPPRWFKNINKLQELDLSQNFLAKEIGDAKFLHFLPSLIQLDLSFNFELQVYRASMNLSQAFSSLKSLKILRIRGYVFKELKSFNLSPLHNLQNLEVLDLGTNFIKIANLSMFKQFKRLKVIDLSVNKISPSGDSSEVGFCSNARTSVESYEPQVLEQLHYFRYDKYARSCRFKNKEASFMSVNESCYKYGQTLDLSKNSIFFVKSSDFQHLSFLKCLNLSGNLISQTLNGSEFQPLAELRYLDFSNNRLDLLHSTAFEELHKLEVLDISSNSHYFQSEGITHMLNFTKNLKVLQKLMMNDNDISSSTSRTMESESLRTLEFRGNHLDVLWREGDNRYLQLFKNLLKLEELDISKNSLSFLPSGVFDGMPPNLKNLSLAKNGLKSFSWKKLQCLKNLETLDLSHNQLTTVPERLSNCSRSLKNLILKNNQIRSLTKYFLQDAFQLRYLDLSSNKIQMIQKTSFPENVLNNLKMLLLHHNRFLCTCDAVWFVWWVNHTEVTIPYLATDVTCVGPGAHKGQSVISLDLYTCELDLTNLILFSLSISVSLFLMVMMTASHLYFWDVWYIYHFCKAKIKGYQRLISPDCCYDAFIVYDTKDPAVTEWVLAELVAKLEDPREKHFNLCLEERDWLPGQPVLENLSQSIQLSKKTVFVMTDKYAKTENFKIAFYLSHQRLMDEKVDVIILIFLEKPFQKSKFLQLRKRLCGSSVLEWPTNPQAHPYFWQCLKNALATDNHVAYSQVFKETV
Recorded metric: log10 IC50 (log10 of the value in nM)
Please interpret these as log10 of IC50 where IC50 is in nM.

Cc1c(-c2[nH]c3ccc(N4CCN(C(=O)CN5CC6(COC6)C5)CC4)nc3c2C(C)C)cn2ncnc2c1C :: 3.04

Alright, here's another molecule for you.
Task item: // query log10 IC50 value for entry `Cc1c(-c2[nH]c3ccc(C4CC5(C4)CN(CCC(N)=O)C5)nc3c2C(C)C)cn2ncnc2c1C`
Reply: 0.15

---

Listed below: pIC50 values for each entry.
target: human TLR9 (Homo sapiens (Human)); test: TLR9 inhibition reporter assay (HEK-Blue SEAP); conditions: read-out: TLR9 IC50; HEK-Blue cells overexpressing human TLR9, ODN2006 5 nM stimulation, SEAP reporter
Quick note: pIC50 means taking -log10 of the concentration in moles per liter.

The cases that follow already have their pIC50 on record.
COc1cc(-c2[nH]c3cc(C)c(C4CCC(N5CC6(COC6)C5)CC4)nc3c2C(C)C)cn2ncnc12 (centres unmarked) [Example 317] :: 5.44
Cc1c(-c2[nH]c3ccc(N4CCCNCC4)nc3c2C(C)C)cn2ncnc2c1C [Example 162] :: 4.64
COc1cc(-c2[nH]c3ccc(N4CCN(CC#N)CC4)nc3c2C(C)C)cn2ncnc12 [Example 94] :: 5.03
COc1cc(-c2[nH]c3ccc(N4CCN(CCC(N)=O)CC4)nc3c2C(C)C)cn2ncnc12 [Example 137] :: 5.07
COc1cc(-c2[nH]c3cc(C)c(C4CCC(N5CCC5)CC4)nc3c2C(C)C)cn2ncnc12 (centres unmarked) [Example 326] :: 6.01

Task item: Value wanted: pIC50 (human TLR9 (Homo sapiens (Human))) of entry Cc1c(-c2[nH]c3ccc(C4CCC(N(C)CCC#N)CC4)nc3c2C(C)C)cn2ncnc2c1C (centres unmarked) [Example 366]
Reply: 5.33

Task item: Proceed to CC(C)c1c(-c2cn(CCS(C)(=O)=O)c3ncccc23)[nH]c2ccc(C3CCC(NCC(=O)N(C)C)CC3)nc12 (centres unmarked) [Example 257]
Reply: 6.76

Task item: Proceed to CC(C)c1c(-c2cc(CO)c3ncnn3c2)[nH]c2ccc(C3CCC(NC4COC4)CC3)nc12 (centres unmarked) [Example 235]
Reply: 6.03

---

biological target: human TLR9 (Homo sapiens (Human), UniProt Q9NR96); experiment: TLR9 inhibition reporter assay (HEK-Blue SEAP); conditions: read-out: TLR9 IC50; HEK-Blue cells overexpressing human TLR9, SEAP reporter, ODN2006 5 nM;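 further: SEAP driven by an IFN-β minimal promoter with NF-κB and AP-1 sites, read after 22 h, compounds dosed 0.05 nM–50 µM, inhibition scaled between agonist plus DMSO and reference-inhibitor wells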
Sequence (Q9NR96 26-1032): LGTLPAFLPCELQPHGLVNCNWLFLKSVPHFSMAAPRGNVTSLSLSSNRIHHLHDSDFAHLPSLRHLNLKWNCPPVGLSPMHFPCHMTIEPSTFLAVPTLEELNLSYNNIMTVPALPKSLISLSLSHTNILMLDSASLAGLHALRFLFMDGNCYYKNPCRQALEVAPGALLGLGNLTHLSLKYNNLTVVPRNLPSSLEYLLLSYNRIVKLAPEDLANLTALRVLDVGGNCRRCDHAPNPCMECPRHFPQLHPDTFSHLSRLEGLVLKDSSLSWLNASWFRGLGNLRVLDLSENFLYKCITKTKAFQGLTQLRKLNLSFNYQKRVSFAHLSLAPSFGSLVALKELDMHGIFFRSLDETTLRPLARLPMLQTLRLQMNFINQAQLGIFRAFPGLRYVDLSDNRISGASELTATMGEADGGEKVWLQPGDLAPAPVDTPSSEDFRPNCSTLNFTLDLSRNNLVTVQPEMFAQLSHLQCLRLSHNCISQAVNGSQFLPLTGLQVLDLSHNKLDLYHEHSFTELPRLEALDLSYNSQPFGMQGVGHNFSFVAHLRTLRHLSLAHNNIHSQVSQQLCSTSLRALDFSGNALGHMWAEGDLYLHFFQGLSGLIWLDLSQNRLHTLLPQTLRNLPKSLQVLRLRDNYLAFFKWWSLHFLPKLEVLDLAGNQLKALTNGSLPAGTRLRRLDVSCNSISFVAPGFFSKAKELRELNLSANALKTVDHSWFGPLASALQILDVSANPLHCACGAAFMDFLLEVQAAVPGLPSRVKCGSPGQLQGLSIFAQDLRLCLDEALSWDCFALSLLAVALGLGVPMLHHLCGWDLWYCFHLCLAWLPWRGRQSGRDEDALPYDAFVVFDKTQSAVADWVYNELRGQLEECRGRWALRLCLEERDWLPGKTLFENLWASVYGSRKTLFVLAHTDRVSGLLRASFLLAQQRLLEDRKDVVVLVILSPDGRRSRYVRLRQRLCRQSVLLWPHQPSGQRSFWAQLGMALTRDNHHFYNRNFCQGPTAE
Listed below: IC50 values for each entry.
Form entry: value (nM) — number only.

The cases that follow already have their IC50 on record.
Cc1c(-c2[nH]c3ccc(C4CCC(NCCC#N)CC4)nc3c2C(C)C)cn2ncnc2c1C (stereo not drawn) :: 584
COc1cc(-c2[nH]c3ccc(C4CCC(N(CC#N)CC#N)C4)nc3c2C(C)C)cn2ncnc12 (stereo not drawn) [Example 713] :: 4880
COc1cc(-c2[nH]c3ccc(C4CC(N(C)CC5(C)COC5)C4)nc3c2C(C)C)cn2ncnc12 (stereo not drawn) :: 3170
Cc1cc(-c2[nH]c3ccc(C4CCN(CC(=O)N(C)C)CC4)nc3c2C(C)C)cn(C)c1=O :: 1830
COc1cc(-c2[nH]c3ccc(C4CC(NCC5(C)COC5)C4)nc3c2C(C)C)cn2ncnc12 (stereo not drawn) :: 1280
CNC(=O)C(C)(C)NC1CCC(c2ccc3[nH]c(-c4cn5ncnc5c(C)c4C)c(C(C)C)c3n2)CC1 (stereo not drawn) :: 2290

Alright, here's another compound for you.
Task item: // query IC50 value for entry `COc1cc(-c2[nH]c3cc(C)c(C4CCNCC4)nc3c2C(C)C)cn2ncnc12`
Reply: 1470

Cited source: patent US10544143B2
